- TGT: KRAS-G12D protein (Homo sapiens, UniProt P01116, G12D)
- Sequence (P01116 1-188 isoform P01116-2 G12D): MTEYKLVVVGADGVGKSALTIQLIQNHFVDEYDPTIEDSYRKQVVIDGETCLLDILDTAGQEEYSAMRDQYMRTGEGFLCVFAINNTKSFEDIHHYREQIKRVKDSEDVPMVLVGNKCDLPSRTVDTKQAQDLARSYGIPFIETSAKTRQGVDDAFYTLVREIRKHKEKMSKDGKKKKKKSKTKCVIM
- METHOD_NOTES: SOS-mediated nucleotide exchange assay (BODIPY-GDP / Tb-streptavidin TR-FRET)
- Format: biochemical
*1 amine or outer side, *2 acyl side, *3 side chain or, on linkers, in order; H or OH if unused. Where a SMILES comes first, the peptide text is derived from it. Bridges are numbered along the chain shown (N, C = ends). [ ]: non-standard residue; d: D form. Phe(4-guanidino) = N=C(N)Nc1ccc(C[C@H](N)C(=O)O)cc1; Ala(pyrimidin-5-yl) = N[C@@H](Cc1cncnc1)C(=O)O; X6 = O=C([C@H](Cc1cnn(C2COC2)c1)N[*:1])[*:2]; X33 = O=C([C@H](Cc1ccnc(F)c1F)N[*:1])[*:2]; Phe(2-F) = N[C@@H](Cc1ccccc1F)C(=O)O; NMe3Pal = CN[C@@H](Cc1cccnc1)C(=O)O; X1 = O=C(C12CC(CN[*:1])(C1)C2)[*:2]; NMeOrn(Me) = CNCCC[C@H](NC)C(=O)O; Ala(cPr) = N[C@@H](CC1CC1)C(=O)O; NMeF = CN[C@@H](Cc1ccccc1)C(=O)O; PhLac = O=C(O)[C@@H](O)Cc1ccccc1; Ahp(2) = CCCCC[C@H](N)C(=O)O; Cba = N[C@@H](CC1CCC1)C(=O)O; hLeu = CC(C)CC[C@H](N)C(=O)O; αMeC = C[C@](N)(CS)C(=O)O; NMeA = CN[C@@H](C)C(=O)O
MEASUREMENT_NAME: EC50
Please state the value followed by its unit.

Lookup: Bench note: what EC50 did CC(C)CC[C@@H]1NC(=O)[C@H](Cc2ccccc2F)NC(=O)[C@H](CC2CC2)NC(=O)[C@H](Cc2cnn(C3COC3)c2)NC(=O)[C@H](C)N(C)C(=O)[C@H](Cc2ccccc2)OC(=O)C23CC(CNC(=O)[C@H](Cc4cccnc4)N(C)C1=O)(C2)C3 [compound 301] (cyclo([Ala(cPr)][Phe(2-F)][hLeu][NMe3Pal][X1][PhLac][NMeA][X6])) show?
Found: 2.17 nM

Lookup: Here is the next compound: CCCCC[C@@H]1NC(=O)[C@H](Cc2ccc(OC)cc2)NC(=O)[C@H](CC2CCC2)NC(=O)[C@H](Cc2ccc(NC(=N)N)cc2)NC(=O)[C@H](CCCNC)N(C)C(=O)[C@H](Cc2ccccc2)NC(=O)CSC[C@@](C)(C(N)=O)NC(=O)[C@H](Cc2ccccc2)N(C)C1=O [compound 385] ({CH2CO}-F[NMeOrn(Me)][Phe(4-guanidino)][Cba]Y(Me)[Ahp(2)][NMeF][αMeC]-NH2; thioether N-8)
Found: 19.7 nM

Lookup: Also check CC(C)CC[C@@H]1NC(=O)[C@H](Cc2ccnc(F)c2F)NC(=O)[C@H](CC2CC2)NC(=O)[C@H](Cc2cncnc2)NC(=O)[C@H](C)N(C)C(=O)[C@H](Cc2ccccc2)OC(=O)C23CC(CNC(=O)[C@H](Cc4ccccc4)N(C)C1=O)(C2)C3 [compound 293] (cyclo([Ala(cPr)][X33][hLeu][NMeF][X1][PhLac][NMeA][Ala(pyrimidin-5-yl)]))
Found: 259 nM
